B1: Protein S100-G, residues 1 to 79; numbered along this chain, P02633 (parent)
chain: MSAKKSPEELKGIFEKYAAKEGDPNQLSKEELKLLLQTEFPSLLKGPSTLDELFEELDKNGDGEVSFEEFQVLVKKISQ

Variants of: B1
METHOD_SUMMARY: abundance fitness (aPCA) (normalised: wild type 0, dead -1); higher = more abundant; growth selection in yeast, the domain comes from the species named
EXPERIMENTAL_CONTEXT: Bos taurus
Note to self: class = bucket of abundance fitness, per class 0: < -0.1; class 1: ≥ -0.1 and < -0.02; class 2: ≥ -0.02

[[record]]
mutations = "F14G"
class_assignment = "class 0"

[[record]]
mutations = "A18S"
class_assignment = "class 1"

[[record]]
mutations = "Y17S"
class_assignment = "class 0"

[[record]]
mutations = "E55M"
class_assignment = "class 2"

[[record]]
mutations = "N25Q"
class_assignment = "class 1"

[[record]]
mutations = "Y17T"
class_assignment = "class 0"

[[record]]
mutations = "L43C"
class_assignment = "class 2"

[[record]]
mutations = "N60M"
class_assignment = "class 0"

[[record]]
mutations = "S48V"
class_assignment = "class 1"

[[record]]
mutations = "E21W"
class_assignment = "class 0"

[[record]]
mutations = "E55K"
class_assignment = "class 1"

[[record]]
mutations = "K16M"
class_assignment = "class 0"

[[record]]
mutations = "E52F"
class_assignment = "class 1"

[[record]]
mutations = "D51Q"
class_assignment = "class 1"

[[record]]
mutations = "E21F"
class_assignment = "class 2"

[[record]]
mutations = "S6C"
class_assignment = "class 0"

[[record]]
mutations = "E69H"
class_assignment = "class 2"

[[record]]
mutations = "P7F"
class_assignment = "class 1"

[[record]]
mutations = "Q79R"
class_assignment = "class 2"

[[record]]
mutations = "S2K"
class_assignment = "class 2"

[[record]]
mutations = "S66E"
class_assignment = "class 2"


Values from the Human Domainome abundance scans (Beltran et al. 2025)
